System: vancomycin-susceptible enterococci
Assay: broth micro-dilution, mean geometric MIC
Format: cell-based, Enterococcus faecium and Enterococcus faecalis
Conditions: enterococci, 24-hour incubation
Classify by measured mean geometric MIC, Vancomycin Sensitive Strains: Fulfilled if it is equal to or exceeds 0.4 µg/mL, Not fulfilled if it is smaller.

As a guide, the following entries are already answered.
[
  {
    "Compound": "CNC(CC(C)C)C(=O)NC1C(=O)NC(CC(N)=O)C(=O)NC2C(=O)NC3C(=O)NC(C(=O)NC(C(=O)O)c4cc(O)cc(O)c4-c4cc3ccc4O)C(OC3CC(C)(N)C(O)C(C)O3)c3ccc(c(Cl)c3)Oc3cc2cc(c3OC2OC(CO)C(O)C(O)C2OC2CC(C)(NCc3ccc4cc(OC)ccc4c3)C(O)C(C)O2)Oc2ccc(cc2Cl)C1O (stereo not drawn)",
    "Test Target": "vancomycin-susceptible enterococci",
    "Class Label": "Not fulfilled"
  },
  {
    "Compound": "CNC(CC(C)C)C(=O)NC1C(=O)NC(CC(N)=O)C(=O)NC2C(=O)NC3C(=O)NC(C(=O)NC(C(=O)O)c4cc(O)cc(O)c4-c4cc3ccc4O)C(OC3CC(C)(N)C(O)C(C)O3)c3ccc(c(Cl)c3)Oc3cc2cc(c3OC2OC(CO)C(O)C(O)C2OC2CC(C)(NCc3ccc(O)c(O)c3)C(O)C(C)O2)Oc2ccc(cc2Cl)C1O (stereo not drawn)",
    "Test Target": "vancomycin-susceptible enterococci",
    "Class Label": "Fulfilled"
  },
  {
    "Compound": "CCCOC(c1ccccc1)c1ccc(CNC2(C)CC(OC3C(Oc4c5cc6cc4Oc4ccc(cc4Cl)C(OC4CC(C)(N)C(O)C(C)O4)C4NC(=O)C(NC(=O)C6NC(=O)C(CC(N)=O)NC(=O)C(NC(=O)C(CC(C)C)NC)C(O)c6ccc(c(Cl)c6)O5)c5ccc(O)c(c5)-c5c(O)cc(O)cc5C(C(=O)O)NC4=O)OC(CO)C(O)C3O)OC(C)C2O)cc1 (stereo not drawn)",
    "Test Target": "vancomycin-susceptible enterococci",
    "Class Label": "Not fulfilled"
  },
  {
    "Compound": "CNC(CC(C)C)C(=O)NC1C(=O)NC(CC(N)=O)C(=O)NC2C(=O)NC3C(=O)NC(C(=O)NC(C(=O)O)c4cc(O)cc(O)c4-c4cc3ccc4O)C(OC3CC(C)(N)C(O)C(C)O3)c3ccc(c(Cl)c3)Oc3cc2cc(c3OC2OC(CO)C(O)C(O)C2OC2CC(C)(NCCCCCCCCOc3ccc(Oc4ccccc4)cc3)C(O)C(C)O2)Oc2ccc(cc2Cl)C1O (stereo not drawn)",
    "Test Target": "vancomycin-susceptible enterococci",
    "Class Label": "Fulfilled"
  },
  {
    "Compound": "CNC(CC(C)C)C(=O)NC1C(=O)NC(CC(N)=O)C(=O)NC2C(=O)NC3C(=O)NC(C(=O)NC(C(=O)O)c4cc(O)cc(O)c4-c4cc3ccc4O)C(OC3CC(C)(N)C(O)C(C)O3)c3ccc(c(Cl)c3)Oc3cc2cc(c3OC2OC(CO)C(O)C(O)C2OC2CC(C)(NCc3c4ccccc4c(C)c4ccccc34)C(O)C(C)O2)Oc2ccc(cc2Cl)C1O (stereo not drawn)",
    "Test Target": "vancomycin-susceptible enterococci",
    "Class Label": "Not fulfilled"
  }
]

Check the entry CNC(CC(C)C)C(=O)NC1C(=O)NC(CC(N)=O)C(=O)NC2C(=O)NC3C(=O)NC(C(=O)NC(C(=O)O)c4cc(O)cc(O)c4-c4cc3ccc4O)C(OC3CC(C)(N)C(O)C(C)O3)c3ccc(c(Cl)c3)Oc3cc2cc(c3OC2OC(CO)C(O)C(O)C2OC2CC(C)(NCc3ccccc3O)C(O)C(C)O2)Oc2ccc(cc2Cl)C1O (stereo not drawn) : does mean geometric MIC, Vancomycin Sensitive Strains equal or exceed 0.4 µg/mL? Fulfilled

Record CNC(CC(C)C)C(=O)NC1C(=O)NC(CC(N)=O)C(=O)NC2C(=O)NC3C(=O)NC(C(=O)NC(C(=O)O)c4cc(O)cc(O)c4-c4cc3ccc4O)C(OC3CC(C)(N)C(O)C(C)O3)c3ccc(c(Cl)c3)Oc3cc2cc(c3OC2OC(CO)C(O)C(O)C2OC2CC(C)(NCc3ccc(N(C)c4ccccc4)cc3)C(O)C(C)O2)Oc2ccc(cc2Cl)C1O (stereo not drawn) ; criterion: mean geometric MIC, Vancomycin Sensitive Strains no lower than 0.4 µg/mL. Met? Not fulfilled

Dear colleague, could you confirm whether CNC(CC(C)C)C(=O)NC1C(=O)NC(CC(N)=O)C(=O)NC2C(=O)NC3C(=O)NC(C(=O)NC(C(=O)O)c4cc(O)cc(O)c4-c4cc3ccc4O)C(OC3CC(C)(N)C(O)C(C)O3)c3ccc(c(Cl)c3)Oc3cc2cc(c3OC2OC(CO)C(O)C(O)C2OC2CC(C)(NCc3ccc(OCCC4CCCCC4)cc3)C(O)C(C)O2)Oc2ccc(cc2Cl)C1O (stereo not drawn) has mean geometric MIC, Vancomycin Sensitive Strains at or above 0.4 µg/mL? Not fulfilled

In plain terms: is recorded mean geometric MIC, Vancomycin Sensitive Strains at least 0.4 µg/mL for CNC(CC(C)C)C(=O)NC1C(=O)NC(CC(N)=O)C(=O)NC2C(=O)NC3C(=O)NC(C(=O)NC(C(=O)O)c4cc(O)cc(O)c4-c4cc3ccc4O)C(OC3CC(C)(N)C(O)C(C)O3)c3ccc(c(Cl)c3)Oc3cc2cc(c3OC2OC(CO)C(O)C(O)C2OC2CC(C)(NCc3ccc4c(c3)CCO4)C(O)C(C)O2)Oc2ccc(cc2Cl)C1O (stereo not drawn) ? Fulfilled
